Test: NCI Yeast Anticancer Drug Screen. Data for the cln2 rad14 strain (AID 165)
Details: S. cerevisiae cln2 rad14 strain, at 50.0 µM, hits give high values
Compounds without any hit were thinned out: in the full panel of roughly 79,000, 15% have a hit.
Class Criterion met: growth inhibition at least 50%. Class Criterion not met: growth inhibition below 50%.

Is it the case that CCCOc1ccc(/C=C/[N+](=O)[O-])cc1N has growth inhibition reaching or exceeding 50%?
Criterion met

Kindly determine if growth inhibition recorded for ClCc1nc2ccccc2[nH]1 is above or exactly 50%.
Criterion met

Does CC[CH2][Sn]([CH2]CC)([CH2]CC)[CH2]CCBr have a reported growth inhibition of at least 50%?
Criterion met

hey, is growth inhibition for this one >= 50%? Cc1oc2c([N+](=O)[O-])cccc2c1[N+](=O)[O-]
Criterion met

Kindly determine if growth inhibition recorded for CC(=O)[O][Hg][c]1cc2c(cc1O)Cc1cc([N+](=O)[O-])ccc1-2 is above or exactly 50%.
Criterion met

Exam item: decide whether the reported growth inhibition for CC(=O)OC1C2(CC3N4C(=O)C5(CO)SSC4(CC31O)C(=O)N5C)OC(C)C(C)(C)C2=O (centres undefined) is at least 50%.
Criterion met

Could you please find out whether CC(=O)Nc1ccccc1[As](O[As](c1ccccc1)c1ccccc1NC(C)=O)c1ccccc1 (centres undefined) has growth inhibition that meets 50% or exceeds it?
Criterion met

Check this molecule for growth inhibition at or above 50%: CC(=O)[O-].[Zn].c1ccc(/C(=N\Nc2ccccn2)c2ccccn2)cc1
Criterion not met

Tell me whether growth inhibition is at least 50% here: CCC1(O)C(=O)OCc2c1cc(C)[nH]c2=O (centres undefined)
Criterion not met

Confirm if growth inhibition reported for the molecule CCN(CC)P1(=O)OC(c2ccccc2)=CCN1c1ccc(OC)cc1 (centres undefined) is 50% or above.
Criterion met

Threshold query (growth inhibition >= 50%) on Cc1ccccc1C[As](C)(=O)O
Criterion not met

For this molecule, is measured growth inhibition 50% or higher? OC(c1ccc(Br)cc1)C(Cl)(Cl)Cl (centres undefined)
Criterion met

Could you please find out whether O=C(O)C1(c2ccccc2)OC1c1ccccc1 (centres undefined) has growth inhibition that meets 50% or exceeds it?
Criterion met

Is growth inhibition at least 50%? Consider C=C(C)C1(CCCC)C(=O)NC(=S)NC1=O
Criterion not met

Evaluate O=[n+]1c2ccccc2n([O-])c2ccccc21.[Cl][Ni][Cl] : growth inhibition at minimum 50%?
Criterion met

Quick check: does Cn1c2cccc(=O)c-2nc2ccccc21 have growth inhibition greater than or equal to 50%?
Criterion not met

Reported growth inhibition at or above 50%? COc1cc2ccccc2c2cc([N+](=O)[O-])oc12
Criterion met

Threshold query (growth inhibition >= 50%) on C/C=C(\C)C(=O)OC1C(C)=C2C(C1OC(=O)CCCCC)C(C)(OC(C)=O)CC(OC(=O)CCC)C1(O)C2OC(=O)C1(C)O (centres undefined)
Criterion met

Tell me whether growth inhibition is at least 50% here: COC([CH2][Hg][n]1cnc2c1c(=O)n(C)c(=O)n2C)CN1C(=O)c2ccccc2S1(=O)=O (centres undefined)
Criterion met

Test whether the molecule Nc1nc(-c2ccccc2)c(-c2ccccc2)[se]1 records growth inhibition of 50% or higher.
Criterion not met

For this molecule, is measured growth inhibition 50% or higher? COC(COC(=O)N1CCN(C=O)CC1)C1=C(N2CC2)C(=O)C(C)=C(N2CC2)C1=O (centres undefined)
Criterion not met

Confirm if growth inhibition reported for the molecule CC[C@H](C)c1occ2c(O)c(C(=O)O)c(=O)cc-2c1C is 50% or above.
Criterion not met

Given the entry CCn1c(O)c(C(=O)NC(C)c2ccc([N+](=O)[O-])cc2)c(=O)n(CC)c1=S (centres undefined) , answer whether its growth inhibition meets or surpasses 50%.
Criterion met

Entry [Br][Sn]([CH]1CCCCC1)([CH]1CCCCC1)[CH]1CCCCC1 : is its growth inhibition no less than 50%?
Criterion met

Could you please find out whether CC1(C)N=C(N)N=C(N)N1c1cccc(N)c1.[Sn] has growth inhibition that meets 50% or exceeds it?
Criterion not met

Decide: growth inhibition of CC(=O)[O][Hg][c]1ccccc1N >= 50%?
Criterion met

For this molecule, is measured growth inhibition 50% or higher? c1cc[c]([Pb]([c]2ccccc2)[c]2ccccc2)cc1.c1cc[c]([Pb]([c]2ccccc2)[c]2ccccc2)cc1
Criterion met

Test whether the molecule N#CC(=C=N)N=C(F)C(C#N)=C(C#N)C#N records growth inhibition of 50% or higher.
Criterion met

Determine whether measured growth inhibition meets or exceeds 50% for c1ccc2c(c1)CCc1c-2[nH]c2ccccc12
Criterion met

Please tell me: is the molecule Cc1ccc([PH+](c2ccc(C)cc2)c2ccc(C)cc2)cc1.Cc1ccc([PH+](c2ccc(C)cc2)c2ccc(C)cc2)cc1.[Cl][Hg][Cl] at or over 50% in terms of growth inhibition?
Criterion not met

Can CC(C)(Br)C(=O)C(Br)Br be said to have growth inhibition at or above 50%?
Criterion met

Decide: growth inhibition of [Ni+2].[SH2+]C([SH2+])=Nc1ccccc1.[SH2+]C([SH2+])=Nc1ccccc1.c1ccc(C[P+](c2ccccc2)(c2ccccc2)c2ccccc2)cc1 >= 50%?
Criterion met

Could you please find out whether O=S(=O)(F)c1ccc(Cl)cc1C[P+](c1ccccc1)(c1ccccc1)c1ccccc1 has growth inhibition that meets 50% or exceeds it?
Criterion not met

Dear colleague, could you confirm whether CC1(C)CCC(C)(C)c2cc(Cl)c(O)cc21 has growth inhibition at or above 50%?
Criterion met

I'd appreciate it if you could say whether [Cl][Sn]([c]1ccccc1)[c]1ccccc1 has growth inhibition at least equal to 50%.
Criterion met

Please tell me: is the molecule CC(C)(C)OOC(=O)c1ccccc1 at or over 50% in terms of growth inhibition?
Criterion not met

Quick check, growth inhibition >= 50%? CC/C(=C/c1ccc2c(c1)OCO2)[N+](=O)[O-]
Criterion met

Is reported growth inhibition greater than or equal to 50% here: [Cl][Sn]1([c]2ccccc2)[O]CCNCC[O]1
Criterion met

Hello, I need to know if CCCCC(CC)CNP(=S)(NCC(CC)CCCC)NCC(CC)CCCC (centres undefined) has measured growth inhibition not below 50%. Thanks!
Criterion not met

Is the recorded value of growth inhibition equal to or greater than 50% for this molecule? CC1=CC2OC3CC4OC(=O)/C=C/C=C/C(C(C)O)OCC(O)C(C)CC(=O)OCC2(CC1O)C4(C)C31CO1 (centres undefined)
Criterion met

State whether the measured growth inhibition reaches 50%, counting equality as reaching it, for c1ccc2c(c1)[As]=c1ccccc1=[As]2 (centres undefined)
Criterion met

Does CCC[N+](CCC)(CCC)CCC.N#CN=C([SH2+])[SH2+].N#CN=C([SH2+])[SH2+].[Pt+2] have a reported growth inhibition of at least 50%?
Criterion not met

// inclusive: growth inhibition at least 50%? input: CNC1=C(C)C(=O)C2=C(C1=O)C(COC(N)=O)C1(O)C3C(CN21)N3C (centres undefined)
Criterion met

Quick check: does Cc1cn(CC2C=CC(CS[As](C)C)O2)c(=O)[nH]c1=O (centres undefined) have growth inhibition greater than or equal to 50%?
Criterion met
